condition description: in water, 310.15 K
parameter: solubility (mole fraction)
Lab note: jot the number down without any unit.

O=C(O)CCCC(=O)O | 0.236

Would you kindly share the measured solubility (mole fraction) for O=C(O)CCCCCC(=O)O ?
0.0132

====

condition description: in water, 312.15 K
parameter: solubility (mole fraction)
Field format: numeric only.

Which solubility (mole fraction) is reported for this compound? O=C(O)CCCC(=O)O
0.249

====

condition description: in water, 309.15 K
Readings of solubility (mole fraction) for the listed compounds
Lab note: jot down the number only; don't add units.

O=C(O)c1ccco1 | 0.013

Attention now turns to another entry.
solubility (mole fraction) lookup needed for O=C(O)c1ccccc1C(=O)O , thanks.
0.00119
